// data source = paper PMC11487390

- Procedure Details: Cytotoxicity assay, MRC-5SV2 cells, resazurin, 3 days
- Format: cell-based
- Run Conditions: human, MRC-5SV2 human lung fibroblast cells, MRC-5 cells, highest concentration 64 µM
Exercise: for every item that follows, state its recorded EC50 at 3 days.
Give bare numbers, in µM.

Worked examples, 5 compounds total:
COc1ccc(-c2nn(-c3ccccc3)cc2CNCCc2ccc(F)cc2)cc1OC: 1.22
CN(C)CCCNCc1cn(-c2ccccc2)nc1-c1ccc2c(c1)OCCO2.Cl.Cl: 5.14
CNC(=O)c1cc(Oc2ccc(NC(=O)c3cn(-c4ccccc4)nc3-c3ccc4c(c3)OCCO4)cc2)ccn1: 6.35
COc1ccc(-c2nn(-c3ccccc3)cc2CNCCc2ccccn2)cc1: 28.9
c1ccc(-n2cc(CNCCc3ccccn3)c(-c3ccc4c(c3)OCCO4)n2)cc1: 29.1

// for each compound in input: emit EC50 at 3 days
1. O=C(NCCc1ccccn1)c1cn(-c2ccccc2)nc1-c1ccc2c(c1)OCCO2
2. CN1CCN(Cc2cn(-c3ccccc3)nc2-c2ccc3c(c2)OCCO3)CC1
3. c1ccc(CCNCc2cn(-c3ccccc3)nc2-c2ccc3c(c2)OCCO3)cc1
4. c1ccc(-n2cc(CNCCc3ccccn3)c(-c3ccc4c(c3)OCO4)n2)cc1
5. CN1CCN(CCNCc2cn(-c3ccccc3)nc2-c2ccc3c(c2)OCCO3)CC1

1: 32; 2: 18.2; 3: 0.56; 4: 26.6; 5: 6.94

* * *

- System: L. infantum MHOM/MA(BE)/67 strain
- Procedure Details: L. infantum intracellular amastigote assay in PMM (Giemsa, 5 days)
- Format: cell-based, Leishmania infantum
- Run Conditions: Leishmania infantum, 120 h, amastigotes in PMM, 5 days; read-out: L. inf. (EC50)
Exercise: for every item that follows, state its recorded pEC50.
Answers are plain numbers, as −log10 of the molar value.

Worked examples, 6 compounds total:
c1ccc(-n2cc(COCc3cn(-c4ccccc4)nc3-c3ccc4c(c3)OCCO4)nn2)cc1: 4.49
c1ccc(Cn2cc(COCc3cn(-c4ccccc4)nc3-c3ccc4c(c3)OCCO4)nn2)cc1: 4.49
Clc1ccc(Cc2cn(-c3ccccc3)nc2-c2ccc3c(c2)OCCO3)cc1: 4.90
CNC(=O)c1cc(Oc2ccc(NCc3cn(-c4ccccc4)nc3-c3ccc4c(c3)OCO4)cc2)ccn1: 4.49
O=C(NCc1ccccc1)c1cn(-c2ccccc2)nc1-c1ccc2c(c1)OCCO2: 4.90
Fc1ccc(COCc2cn(-c3ccccc3)nc2-c2ccc3c(c2)OCCO3)cc1: 4.65

Then there is this compound:
Kindly indicate its recorded pEC50. Item: "FC(F)c1cn(-c2ccccc2)nc1-c1ccc2c(c1)OCCO2" 4.49

* * *

- Test system: L. infantum MHOM/MA(BE)/67 strain
- Procedure Details: L. infantum intracellular amastigote assay in PMM (Giemsa, 5 days)
- Type: cell-based, Leishmania infantum
- Run Conditions: Leishmania infantum, 120 h, amastigotes in PMM, 5 days; read-out: L. inf. (EC50)
Property Name: EC50 (µM)
One number for each entry, in µM.

c1ccc(Cc2cn(-c3ccccc3)nc2-c2ccc3c(c2)OCCO3)cc1 [Compound 49]: 38.1

// for each compound in input: emit EC50
1. O=C(NCc1ccc(F)cc1)c1cn(-c2ccccc2)nc1-c1ccc2c(c1)OCCO2 [Compound 33]
2. O=C(NCCN1CCCC1)c1cn(-c2ccccc2)nc1-c1ccc2c(c1)OCCO2 [Compound 42]
3. CNC(=O)c1ccc(NCc2cn(-c3ccccc3)nc2-c2ccc3c(c2)OCCO3)cn1 [Compound 18]

1. 8.3
2. 27.3
3. 9.19

// for each compound in input: emit EC50
1. c1ccc(NCc2cn(-c3ccccc3)nc2-c2ccc3c(c2)OCCO3)cc1 [Compound 13]
2. COc1ccc(-c2nn(-c3ccccc3)cc2CN2CCCC2)cc1 [Compound 65]
3. O=C(c1cn(-c2ccccc2)nc1-c1ccc2c(c1)OCCO2)N1CCCC1 [Compound 39]
4. COc1ccc(-c2nn(-c3ccccc3)cc2COCc2ccc(F)cc2)cc1 [Compound 68]

[10.8, 33.2, 38.1, 36.8]

Kindly indicate its recorded EC50. Item: O=C(NCCc1cccnc1)c1cn(-c2ccccc2)nc1-c1ccc2c(c1)OCCO2 [Compound 36] 45.2
